Target: NAMPT enzyme (Homo sapiens (Human))
Sequence (P43490 whole entry, species assumed): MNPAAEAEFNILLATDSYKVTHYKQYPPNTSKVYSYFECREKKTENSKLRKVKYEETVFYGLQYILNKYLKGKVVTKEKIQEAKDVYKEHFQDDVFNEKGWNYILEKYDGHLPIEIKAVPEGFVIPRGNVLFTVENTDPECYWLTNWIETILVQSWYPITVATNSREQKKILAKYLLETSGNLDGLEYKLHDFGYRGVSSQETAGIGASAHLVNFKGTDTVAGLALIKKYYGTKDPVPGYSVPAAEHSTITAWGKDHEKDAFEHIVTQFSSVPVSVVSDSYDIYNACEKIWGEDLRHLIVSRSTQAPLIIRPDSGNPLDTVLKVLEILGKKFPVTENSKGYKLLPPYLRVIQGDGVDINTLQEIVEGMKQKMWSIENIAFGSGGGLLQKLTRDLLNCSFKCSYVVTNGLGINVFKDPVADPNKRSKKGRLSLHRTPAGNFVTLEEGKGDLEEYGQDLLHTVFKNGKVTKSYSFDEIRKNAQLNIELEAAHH
Assay: Enzyme Assay and NMN Detection (NAMPT reaction, fluorescence detection of NMN)
Type: biochemical
Settings: Table B-2; NAMPT activation, NMN formation
Experimental: NAMPT reaction was performed in 50 mM HEPES, pH 7.5, containing 5 mM MgCl2, 0.1% Prionex, 0.005% Tween 20, and 1 mM TCEP at room temperature in Greiner 384-well black polypropylene plates. […] The fluorescence (ex380/em460) was measured following another short incubation and 30 min incubation. The increased concentration of NMN was determined from a calibration curve obtained at the time of experiment.
experimental-readout: EC50

INSERT INTO assay_data (compound, experimental_readout, assay_value) VALUES
  ('CCOC(=O)c1ccccc1NC(=O)NCc1ccncc1', 'EC50', '> 20000 nM'),
  ('CCOC(=O)c1ccc(NC(=O)NCc2ccncc2N)cc1', 'EC50', '> 20000 nM'),
  ('O=C(NCc1ccncc1)Nc1ccc(NS(=O)(=O)Cc2cccc(Cl)c2)cc1', 'EC50', '< 100 nM'),
  ('COc1cccc(S(=O)(=O)Nc2ccc(NC(=O)NCc3ccncc3)cc2)c1', 'EC50', '< 100 nM'),
  ('CN(C1CCCC1)S(=O)(=O)c1ccc(NC(=O)NCc2ccncc2)cc1', 'EC50', '100 to 2000 nM'),
  ('COc1cccc(S(=O)(=O)c2ccc(NC(=O)NCc3ccncc3)cc2)c1', 'EC50', '< 100 nM'),
  ('CCOC(=O)c1ccc(NC(=O)NCc2ccncc2C)cc1', 'EC50', '> 20000 nM'),
  ('CN(C)C(=O)c1ccc(NC(=O)NCc2ccncc2)cc1', 'EC50', '> 20000 nM'),
  ('O=C(NCc1ccncc1)Nc1ccc(S(=O)(=O)N2CCc3cc(C(F)(F)F)ccc3C2)cc1', 'EC50', '100 to 2000 nM'),
  ('CCOC(=O)c1ccc(NC(=O)NCc2ccnc(C)c2)cc1', 'EC50', '> 20000 nM'),
  ('Cc1nc(NS(=O)(=O)c2ccc(NC(=O)NCc3ccncc3)cc2)oc1C', 'EC50', '> 20000 nM'),
  ('COc1cccc(NS(=O)(=O)c2ccc(NC(=O)NCc3ccncc3)cc2)c1', 'EC50', '100 to 2000 nM'),
  ('CS(=O)(=O)c1ccc(CNS(=O)(=O)c2ccc(NC(=O)NCc3ccncc3)cc2)cc1', 'EC50', '100 to 2000 nM'),
  ('CN(Cc1ccccc1F)S(=O)(=O)c1ccc(NC(=O)NCc2ccncc2)cc1', 'EC50', '< 100 nM'),
  ('Cc1ccc(N(C)C(=O)c2ccc(NC(=O)NCc3ccncc3)cc2)cc1', 'EC50', '5000 to 20000 nM'),
  ('CN(C)c1cccc(NC(=O)c2ccc(NC(=O)NCc3ccncc3)cc2)c1', 'EC50', '100 to 2000 nM'),
  ('O=C(NCc1ccncc1)Nc1ccc(C(=O)Nc2cncnc2)cc1', 'EC50', '100 to 2000 nM'),
  ('CCOC(=O)c1ccc(NC(=O)NCc2ccnc(F)c2)cc1', 'EC50', '> 20000 nM'),
  ('O=C(NCc1ccncc1)Nc1ccc(S(=O)(=O)NC2CCNC2)cc1 (centres unmarked)', 'EC50', '5000 to 20000 nM'),
  ('O=C(NCc1ccncc1)Nc1ccc(C(=O)NC2CCC2)cc1', 'EC50', '5000 to 20000 nM'),
  ('CCOCCCNC(=O)c1ccc(NC(=O)NCc2ccncc2)cc1', 'EC50', '100 to 2000 nM'),
  ('O=C(NCc1ccncc1)Nc1ccc(NS(=O)(=O)c2ccccc2Cl)cc1', 'EC50', '< 100 nM'),
  ('CN1CCN(S(=O)(=O)c2ccc(NC(=O)NCc3ccncc3)cc2)CC1', 'EC50', '100 to 2000 nM'),
  ('O=C(NCc1ccncc1)Nc1ccc(CS(=O)(=O)Nc2ccccc2)cc1', 'EC50', '100 to 2000 nM'),
  ('COc1ccc(NC(=O)c2ccc(NC(=O)NCc3ccncc3)cc2)cc1OC', 'EC50', '100 to 2000 nM'),
  ('Cc1ccnc(NS(=O)(=O)c2ccc(NC(=O)NCc3ccncc3)cc2)n1', 'EC50', '100 to 2000 nM'),
  ('CN(C1CCCCC1)S(=O)(=O)c1ccc(NC(=O)NCc2ccncc2)cc1', 'EC50', '100 to 2000 nM'),
  ('O=C(NCc1ccncc1)Nc1ccc(S(=O)(=O)NCc2ccccc2C(F)(F)F)cc1', 'EC50', '100 to 2000 nM'),
  ('CC(C)(C)CNS(=O)(=O)c1ccc(NC(=O)NCc2ccncc2)cc1', 'EC50', '100 to 2000 nM'),
  ('O=C(NCc1ccncc1)Nc1ccc(C(=O)Nc2ccccc2OC(F)(F)F)cc1', 'EC50', '100 to 2000 nM'),
  ('O=C(NCc1ccncc1)Nc1ccc(S(=O)(=O)NCCN2CCOCC2)cc1', 'EC50', '100 to 2000 nM'),
  ('O=C(NCc1ccncc1)Nc1ccc(C(=O)N2CC3CCC(C2)O3)cc1', 'EC50', '100 to 2000 nM'),
  ('O=C(NCc1ccncc1)Nc1ccc(C(=O)Nc2ccccc2F)cc1', 'EC50', '100 to 2000 nM'),
  ('O=C(NCc1ccncc1)Nc1cccc(S(=O)(=O)NCC2CCC2)c1', 'EC50', '> 20000 nM'),
  ('Cc1ccccc1NS(=O)(=O)c1ccc(NC(=O)NCc2ccncc2)cc1', 'EC50', '100 to 2000 nM'),
  ('COCCCNS(=O)(=O)c1ccc(NC(=O)NCc2ccncc2)cc1', 'EC50', '100 to 2000 nM'),
  ('COc1ccccc1S(=O)(=O)Nc1ccc(NC(=O)NCc2ccncc2)cc1', 'EC50', '100 to 2000 nM'),
  ('O=C(NCc1ccncc1)Nc1ccc(C(=O)N2CCOCC2)cc1', 'EC50', '5000 to 20000 nM'),
  ('O=C(NCc1ccncc1)Nc1ccc(S(=O)(=O)NCCN2CCCCC2)cc1', 'EC50', '2000 to 5000 nM'),
  ('O=C(NCc1ccncc1)Nc1ccc(S(=O)(=O)NCc2cccc(OC(F)(F)F)c2)cc1', 'EC50', '100 to 2000 nM'),
  ('CN1CCN(C(=O)c2ccc(NC(=O)NCc3ccncc3)cc2)CC1', 'EC50', '5000 to 20000 nM'),
  ('O=C(NCc1ccncc1)Nc1ccc(C(=O)NCCN2CCCCC2)cc1', 'EC50', '2000 to 5000 nM'),
  ('O=C(NCc1ccncc1)Nc1ccc(NS(=O)(=O)Cc2ccccc2Cl)cc1', 'EC50', '< 100 nM'),
  ('Cc1cccc(CNS(=O)(=O)c2ccc(NC(=O)NCc3ccncc3)cc2)c1', 'EC50', '100 to 2000 nM');
